B1: TPR t1 (parent)
chain: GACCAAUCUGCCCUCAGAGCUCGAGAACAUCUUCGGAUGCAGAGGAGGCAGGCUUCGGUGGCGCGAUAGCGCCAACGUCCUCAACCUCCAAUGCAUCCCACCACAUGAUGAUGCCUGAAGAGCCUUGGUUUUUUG

variants of: B1; experiment: polymerase ribozyme fitness, log enrichment relative to wild type (log ratio); higher = more active; in vitro selection for triplet polymerase activity
# polymerase ribozyme fitness (log ratio) binned as A = under -4, B = from -4 up to -2, C = -2 and over

[[record]]
alteration = "U59C A91G U133G"
classlabel = "B"

[[record]]
alteration = "C11U G63U"
classlabel = "C"

[[record]]
alteration = "C8A C94A A119G"
classlabel = "C"

[[record]]
alteration = "U126A U130A"
classlabel = "B"

[[record]]
alteration = "A5C C22G C56G C123U"
classlabel = "A"

[[record]]
alteration = "G39U U92C C101G"
classlabel = "A"

[[record]]
alteration = "C56A G69U C73U C124A"
classlabel = "C"

[[record]]
alteration = "U54A C88G"
classlabel = "C"

[[record]]
alteration = "G42A A111G G113C A121C"
classlabel = "C"

[[record]]
alteration = "A6U C12A A16U G19U G42A G63U G93A U106A G120A U130A"
classlabel = "A"

[[record]]
alteration = "C56U C70U U96A"
classlabel = "B"

[[record]]
alteration = "A46G G61A A100C U132C"
classlabel = "C"

[[record]]
alteration = "G35A G60C"
classlabel = "A"

[[record]]
alteration = "A2G U87A U112A"
classlabel = "C"

[[record]]
alteration = "A5C G58A G60C"
classlabel = "C"

[[record]]
alteration = "C13G U21A G52C G61U A91C G120C"
classlabel = "B"

[[record]]
alteration = "A18C C20U"
classlabel = "C"

[[record]]
alteration = "G63U C114A U125A"
classlabel = "A"

[[record]]
alteration = "C53U U78G C79A"
classlabel = "C"

[[record]]
alteration = "U55C C85A G113C"
classlabel = "B"

[[record]]
alteration = "C12U G63A U106G"
classlabel = "B"

[[record]]
alteration = "C3G A83C"
classlabel = "B"

[[record]]
alteration = "C20A A95G U112A G120U"
classlabel = "C"

[[record]]
alteration = "C13U U14A G71A C82G"
classlabel = "B"

[[record]]
alteration = "G10C A83U"
classlabel = "C"

[[record]]
alteration = "A43G C56U U109A G117U"
classlabel = "A"

[[record]]
alteration = "G61A U129G U130A"
classlabel = "B"

[[record]]
alteration = "C15A A74G U81G U112C"
classlabel = "B"

[[record]]
alteration = "U54G C62G U81A C98U"
classlabel = "A"

[[record]]
alteration = "U14A G52C C102U U106C C124G"
classlabel = "C"

[[record]]
alteration = "C3U A27U G52U C72U C76U C85U U116G C124U U129C"
classlabel = "A"

[[record]]
alteration = "C3U C82G"
classlabel = "C"

[[record]]
alteration = "C40U G51C G57U C89U G120U"
classlabel = "B"

[[record]]
alteration = "A18C G45U"
classlabel = "B"

[[record]]
alteration = "C56U G57A C79G"
classlabel = "C"

[[record]]
alteration = "C11U C13G C56U G93C C114U A119G"
classlabel = "B"

[[record]]
alteration = "C89A U116G C123G"
classlabel = "B"

[[record]]
alteration = "C4G C22G G42A C53G"
classlabel = "A"

[[record]]
alteration = "G77U A119G"
classlabel = "C"

[[record]]
alteration = "C13U C53G C56A G65A"
classlabel = "A"

[[record]]
alteration = "C72G G117U A121U G127A"
classlabel = "B"

[[record]]
alteration = "A18U C62U C89A U133A"
classlabel = "B"

[[record]]
alteration = "G51A U96A"
classlabel = "A"

[[record]]
alteration = "C40A C49U U59A G60A G117C"
classlabel = "A"

[[record]]
alteration = "C15A G63C C88U"
classlabel = "B"

[[record]]
alteration = "A105G"
classlabel = "C"

[[record]]
alteration = "C73U U96G G117A"
classlabel = "B"

[[record]]
alteration = "G39A C62U"
classlabel = "C"

[[record]]
alteration = "G42U U55G G117A"
classlabel = "B"

[[record]]
alteration = "A5G C62U C88G U112C C123A C124A U130A"
classlabel = "C"

[[record]]
alteration = "G17U A29U C72U"
classlabel = "A"

[[record]]
alteration = "C11A G71A A91G A121U"
classlabel = "C"

[[record]]
alteration = "G61A C64U U81G G120U"
classlabel = "A"

[[record]]
alteration = "C12A G47A C102G A111C A118C U129C"
classlabel = "A"

[[record]]
alteration = "G93U U112G"
classlabel = "C"

[[record]]
alteration = "G42U U106A G120C"
classlabel = "B"

[[record]]
alteration = "G35C C86A C101U U109C C124G"
classlabel = "A"

[[record]]
alteration = "C15U A50U G120C"
classlabel = "C"

[[record]]
alteration = "A2C A37U C123U"
classlabel = "C"

[[record]]
alteration = "A46U C79U U96A C115U C123G U132A"
classlabel = "B"

[[record]]
alteration = "C73A C86U C124A"
classlabel = "C"

[[record]]
alteration = "A5C C11U C40U G48U G60U U87A A111C"
classlabel = "A"

[[record]]
alteration = "G44U G127C"
classlabel = "B"

[[record]]
alteration = "C98A"
classlabel = "A"

[[record]]
alteration = "C3U C13U G120A"
classlabel = "C"

[[record]]
alteration = "G52A C114A"
classlabel = "B"

[[record]]
alteration = "U78G G113A"
classlabel = "C"

[[record]]
alteration = "C31G C85U C123U"
classlabel = "A"

[[record]]
alteration = "A83C U112G G113C G120U U130C"
classlabel = "A"

[[record]]
alteration = "G93C C123G"
classlabel = "C"

[[record]]
alteration = "A46U U54G C72A C82A G110U"
classlabel = "A"

[[record]]
alteration = "C8G C11U G63U C124A"
classlabel = "C"

[[record]]
alteration = "A68G U78C"
classlabel = "B"

[[record]]
alteration = "C34A G44A G48A U59A G61U C72U A121C C123G"
classlabel = "A"

[[record]]
alteration = "C62U U106G A121U G122U"
classlabel = "C"

[[record]]
alteration = "C62G U92A"
classlabel = "A"

[[record]]
alteration = "A5G G120C"
classlabel = "C"

[[record]]
alteration = "C86U G93U U106C C124U U126A"
classlabel = "B"

[[record]]
alteration = "C3A A6C A91U U125A"
classlabel = "B"

[[record]]
alteration = "C34G C72U U109A A119U C123U"
classlabel = "A"

[[record]]
alteration = "C8A G58C"
classlabel = "C"

[[record]]
alteration = "C8U A74G C123G"
classlabel = "C"

[[record]]
alteration = "C86A G127C"
classlabel = "C"

[[record]]
alteration = "C70U C114A"
classlabel = "B"

[[record]]
alteration = "C97G A118U U126A"
classlabel = "A"

[[record]]
alteration = "G39U G61A A75U U81C C99A G117U"
classlabel = "A"

[[record]]
alteration = "C12A G39U A50U U133A"
classlabel = "C"

[[record]]
alteration = "A6G G19U C70U"
classlabel = "A"

